System: 996289-038-R-J1-PDC complex spheroid viability;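 also: spheroids exposed to the agents for 7 days before readout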
testMethodNotes: Anticancer human tumor 996289-038-R-J1-PDC patient-derived colon adenocarcinoma cell line growth inhibition [CLK]; active = viability on the fitted dose curve at most 10% of control; inactive = the rest
experimentalSetup: second compound 10 µM; first compound 0.01 µM
Hi! Could you answer with just one of these? true (1) (active), false (0) (inactive)

// known answers, use as guide
Cn1ncnc1[C@H]1c2n[nH]c(=O)c3cc(F)cc(c23)N[C@@H]1c1ccc(F)cc1 + CNC(=O)c1ccc(Nc2nc(OC3CCCC3)c3c(-c4ccc5nc(C)oc5c4)c[nH]c3n2)c(OC)c1; false (0)
CCN1CCN(Cc2ccc(Nc3ncc(F)c(-c4cc(F)c5nc(C)n(C(C)C)c5c4)n3)nc2)CC1 + CN1CCN(c2cc(C(=O)Nc3cc4cc(-c5cnn(C)c5)ccc4cn3)ccn2)CC1; true (1)

--- query ---
Tell me the recorded outcome of this test for COc1c(OCCCN2CCOCC2)ccc2c3n(c(=NC(=O)c4cnc(N)nc4)nc12)CCN3 + CNC(=O)c1ccc(Nc2nc(OC3CCCC3)c3c(-c4ccc5nc(C)oc5c4)c[nH]c3n2)c(OC)c1 .
false (0)
